These data points were gathered from patent US8084466B2.

Target: human histamine H4 receptor (Homo sapiens, UniProt Q9H3N8)
Construct: cell membranes
Sequence (Q9H3N8 whole entry): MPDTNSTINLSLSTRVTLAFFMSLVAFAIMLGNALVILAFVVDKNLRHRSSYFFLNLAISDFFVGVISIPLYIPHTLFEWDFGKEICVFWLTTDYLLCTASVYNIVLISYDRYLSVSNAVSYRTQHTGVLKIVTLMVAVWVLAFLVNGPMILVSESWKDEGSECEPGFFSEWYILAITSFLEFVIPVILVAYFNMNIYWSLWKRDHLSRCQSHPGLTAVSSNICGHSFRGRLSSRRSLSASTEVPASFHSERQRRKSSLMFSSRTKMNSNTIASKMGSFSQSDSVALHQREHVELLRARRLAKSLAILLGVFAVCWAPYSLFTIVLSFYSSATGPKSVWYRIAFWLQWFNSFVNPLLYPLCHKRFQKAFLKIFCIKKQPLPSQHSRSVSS
Test: Binding Assay on Recombinant Human Histamine H4 Receptor
Conditions: competition binding with 3H-histamine (5 nM; KD 5 nM), membranes of SK-N-MC or COS7 cells expressing human H4 receptor; average of results; > = highest value tested
Description: Biological Methods: Binding Assay on Recombinant Human Histamine H4 Receptor SK-N-MC cells or COS7 cells were transiently transfected with pH4R and grown in 150 cm^2 tissue culture dishes. Cells were washed with saline solution, scraped with a cell scraper and collected by centrifugation (1000 rpm, 5 min). […] Filters were then dried, mixed with scintillant and counted for radioactivity. […]
property: Ki (nM)
State just the number; it will be interpreted in nM.

CC(C)(C)c1ccc2[nH]c(-c3cccc4c3ccn4CCCCC3CCNCC3)nc2c1	2660
Cc1c(Cl)ccc2[nH]c(-c3ccc4c(ncn4CCCC4CCNCC4)c3C)nc12	165

Here's the next entry for you.
Notebook: Cc1c(F)ccc2[nH]c(-c3cnc4c(ccn4CCCC4CCN(C)CC4)c3)nc12 , Ki read as 12

* * *

target: human histamine H4 receptor (Homo sapiens); construct: cell membranes; assay: Binding Assay on Recombinant Human Histamine H4 Receptor; conditions: competition binding with 3H-histamine (5 nM; KD 5 nM), membranes of SK-N-MC or COS7 cells expressing human H4 receptor; average of results; > = highest value tested
Item-by-item account of Ki
State just the number; it will be interpreted in nM.

Cc1c(F)ccc2[nH]c(-c3ccc4c(ccn4CCCN4CCN(C)CC4)c3)nc12 [Example 13]	168
Cc1ccc2[nH]c(-c3cc4ccn(CCCC5CCNCC5)c4cc3Cl)nc2c1C [Example 100]	3330

Notebook: CC(C)(C)c1ccc2[nH]c(-c3ccc4ccn(CCCCC5CCNCC5)c4c3)nc2c1 [Example 109] , Ki read as 2670

* * *

target: human histamine H4 receptor (Homo sapiens, UniProt Q9H3N8); construct: cell membranes; assay: Binding Assay on Recombinant Human Histamine H4 Receptor; details: competition binding with 3H-histamine (5 nM; KD 5 nM), membranes of SK-N-MC or COS7 cells expressing human H4 receptor; average of results; > = highest value tested
Item-by-item account of Ki
State just the number; it will be interpreted in nM.

Cc1nc2c(ccc3[nH]c(-c4ccc5c(c4C)CCN5CCCC4CCN(C)CC4)nc32)s1 [Example 60]	91
CN(C)Cc1cn(CCCCC2CCNCC2)c2ccc(-c3nc4cc(C(C)(C)C)ccc4[nH]3)cc12 [Example 39]	2920
CN1CCC(CCCCn2ccc3c(-c4nc5c(F)cc(F)cc5[nH]4)cccc32)CC1 [Example 70]	102

Here's the next entry for you.
Notebook: Cc1c(-c2nc3c(C)cc(F)cc3[nH]2)ccc2c1CCN2CCCC1CCN(C)CC1 [Example 59] , Ki read as 18
